Assay read-out IC50; system under study: DGKα (Homo sapiens (Human), UniProt P23743). Also: full length DGKα 7.5 nM.
Sequence (P23743 whole entry): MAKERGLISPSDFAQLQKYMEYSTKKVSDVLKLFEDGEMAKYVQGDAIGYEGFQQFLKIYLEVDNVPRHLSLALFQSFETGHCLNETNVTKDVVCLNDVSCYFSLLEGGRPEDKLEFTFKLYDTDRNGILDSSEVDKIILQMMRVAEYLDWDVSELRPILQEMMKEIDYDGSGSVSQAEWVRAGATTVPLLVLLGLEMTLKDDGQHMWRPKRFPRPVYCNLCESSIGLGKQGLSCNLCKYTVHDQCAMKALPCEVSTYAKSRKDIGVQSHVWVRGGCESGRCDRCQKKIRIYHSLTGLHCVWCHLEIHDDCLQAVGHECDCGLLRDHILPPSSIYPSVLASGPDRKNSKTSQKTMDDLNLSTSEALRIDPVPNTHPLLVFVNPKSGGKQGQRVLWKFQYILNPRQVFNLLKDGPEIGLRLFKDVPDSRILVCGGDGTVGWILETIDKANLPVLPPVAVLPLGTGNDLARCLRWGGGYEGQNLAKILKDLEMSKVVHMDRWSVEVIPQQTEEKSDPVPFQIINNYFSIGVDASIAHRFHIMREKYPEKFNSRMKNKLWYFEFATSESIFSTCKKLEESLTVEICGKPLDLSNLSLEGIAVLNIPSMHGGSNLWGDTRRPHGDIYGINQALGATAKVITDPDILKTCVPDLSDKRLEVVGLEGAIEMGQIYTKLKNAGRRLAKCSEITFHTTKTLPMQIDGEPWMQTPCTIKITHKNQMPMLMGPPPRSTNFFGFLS
Numbers only, in nM.

>  <Compound>
[2H]C([2H])([2H])C(c1ccc2nc(C)sc2n1)N1C[C@H](CC)N(c2cc(=O)n(C([2H])([2H])[2H])c3cn(CC#N)nc23)C[C@H]1CC (single isomer, unassigned) [Compound A142a]

>  <Metric name>
IC50

>  <Unit symbol>
nM

>  <Experimental result>
1580

$$$$
>  <Compound>
CCc1cn2nc(C(C)N3C[C@H](CC)N(c4cc(=O)n(C)c5cn(CC#N)nc45)C[C@H]3CC)ccc2n1 (single isomer, unassigned) [Compound A153a]

>  <Metric name>
IC50

>  <Unit symbol>
nM

>  <Experimental result>
2720

$$$$
>  <Compound>
CC#CCn1cc2c(n1)c(N1C[C@@H](CC)N(C(C)c3ccc4ncsc4c3)C[C@@H]1C)cc(=O)n2C (single isomer, unassigned) [Compound A112b]

>  <Metric name>
IC50

>  <Unit symbol>
nM

>  <Experimental result>
497

$$$$
>  <Compound>
CC[C@H]1CN(C(C)c2ccc(C(C)(C)F)nc2)[C@H](CC)CN1c1cc(=O)n(C)c2cn(CC#N)nc12 (single isomer, unassigned) [Compound A46a]

>  <Metric name>
IC50

>  <Unit symbol>
nM

>  <Experimental result>
406

$$$$
>  <Compound>
CC#CCn1cc2c(n1)c(N1C[C@@H](CC)N(C(C)c3ccc4nc(C)sc4c3F)C[C@@H]1C)cc(=O)n2C (single isomer, unassigned) [Compound A116a]

>  <Metric name>
IC50

>  <Unit symbol>
nM

>  <Experimental result>
2330

$$$$
>  <Compound>
CC(c1ccc2c(c1)OC(C)(C)O2)N1C[C@H](C)N(c2cc(=O)n(C)c3cn(CC#N)nc23)C[C@H]1C (stereo partly drawn) [Compound A70]

>  <Metric name>
IC50

>  <Unit symbol>
nM

>  <Experimental result>
12400

$$$$
>  <Compound>
CC[C@@H]1CN(c2cc(=O)n(C)c3cn(CC#N)nc23)[C@@H](C)CN1C(C)c1ccn2nccc2n1 (single isomer, unassigned) [Compound A166b]

>  <Metric name>
IC50

>  <Unit symbol>
nM

>  <Experimental result>
1630

$$$$
>  <Compound>
CC[C@H]1CN(C(C)c2ccc3c(c2)OCO3)[C@H](CC)CN1c1cc(=O)n(C)c2cn(CC#N)nc12 (stereo partly drawn) [Compound A185]

>  <Metric name>
IC50

>  <Unit symbol>
nM

>  <Experimental result>
164

$$$$

Parameters: items (list). Returns: IC50 for each item.
1. CC[C@H]1CN(C(C)c2ccc(OC)cn2)[C@H](CC)CN1c1cc(=O)n(C)c2cn(CC#N)nc12 (stereo partly drawn) [Compound A59]
2. CC[C@H]1CN(C(C)c2ccc3nc(COC)sc3c2)[C@H](CC)CN1c1cc(=O)n(C)c2cn(CC#N)nc12 (single isomer, unassigned) [Compound A145b]
3. CC[C@H]1CN(C(C)c2cc3sc(C)nc3cc2F)[C@H](CC)CN1c1nc(=O)n(C)c2cn(CC#N)nc12 (single isomer, unassigned) [Compound A128b]
4. CC[C@H]1CN(C(C)c2ccc(OC3COC3)c(C)c2)[C@H](CC)CN1c1cc(=O)n(C)c2cn(CC#N)nc12 (single isomer, unassigned) [Compound A21a]

1: 137; 2: 3350; 3: 4480; 4: 2890
